target: various mutants of kinase EGFR (BaF3 cell lines stably transfected with kinase) (Homo sapiens, UniProt P00533, L858R); construct: expressed in transfected cells; host or cells: BaF3; assay: Growth inhibitory activity of compounds on BaF3 cell lines stably transfected with kinase (MTS, 48 h); assay type: cell-based; details: BaF3 cells stably transfected with EGFR L858R, read-out: IC50, growth inhibition, L858R
Sequence (P00533 25-1210 L858R): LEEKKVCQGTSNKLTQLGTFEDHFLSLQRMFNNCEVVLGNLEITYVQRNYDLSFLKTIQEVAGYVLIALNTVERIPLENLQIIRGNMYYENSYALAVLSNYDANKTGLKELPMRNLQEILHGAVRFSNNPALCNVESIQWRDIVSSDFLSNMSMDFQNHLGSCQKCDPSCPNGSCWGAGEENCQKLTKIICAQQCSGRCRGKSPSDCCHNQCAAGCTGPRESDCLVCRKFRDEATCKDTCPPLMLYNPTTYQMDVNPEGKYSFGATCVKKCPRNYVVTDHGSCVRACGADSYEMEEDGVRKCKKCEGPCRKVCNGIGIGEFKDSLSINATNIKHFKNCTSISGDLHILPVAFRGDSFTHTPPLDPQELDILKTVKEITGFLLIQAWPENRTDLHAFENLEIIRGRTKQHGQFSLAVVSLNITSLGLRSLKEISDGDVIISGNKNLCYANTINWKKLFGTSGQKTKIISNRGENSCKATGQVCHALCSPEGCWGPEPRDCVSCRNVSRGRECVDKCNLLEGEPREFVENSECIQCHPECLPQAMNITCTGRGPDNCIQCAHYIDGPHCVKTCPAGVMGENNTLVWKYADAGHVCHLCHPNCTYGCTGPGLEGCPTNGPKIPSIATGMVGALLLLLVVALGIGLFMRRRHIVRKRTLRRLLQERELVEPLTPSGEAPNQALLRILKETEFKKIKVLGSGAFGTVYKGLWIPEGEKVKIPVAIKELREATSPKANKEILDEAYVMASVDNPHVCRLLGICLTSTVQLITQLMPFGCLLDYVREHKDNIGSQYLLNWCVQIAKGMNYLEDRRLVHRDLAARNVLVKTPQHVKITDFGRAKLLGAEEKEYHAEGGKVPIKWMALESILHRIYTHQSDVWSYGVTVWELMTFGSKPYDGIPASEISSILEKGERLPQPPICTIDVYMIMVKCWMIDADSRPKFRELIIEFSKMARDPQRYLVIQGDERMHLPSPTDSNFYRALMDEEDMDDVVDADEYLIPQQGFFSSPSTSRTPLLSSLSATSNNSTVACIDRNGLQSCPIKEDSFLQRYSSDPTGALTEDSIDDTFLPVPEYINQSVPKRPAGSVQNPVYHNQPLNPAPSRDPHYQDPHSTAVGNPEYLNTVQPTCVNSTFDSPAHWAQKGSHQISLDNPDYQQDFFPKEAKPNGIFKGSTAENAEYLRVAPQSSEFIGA
Each entry below lists one item and its recorded IC50 value.

CCc1cc(Nc2ncc([N+](=O)[O-])c(Nc3ccc4nccnc4c3N(C)S(C)(=O)=O)n2)c(OC)nc1N1CCC(N2CCN(C)CC2)CC1 [Compound I-190] :: 50 to 500 nM
C=Cc1cc(Nc2ncc(C(F)(F)F)c(Nc3ccc4nccnc4c3N(C)S(C)(=O)=O)n2)c(OC(F)(F)F)cc1N1CCC(N2CCN(C)CC2)CC1 [Compound I-202] :: 50 to 500 nM

Using the record for COc1nc(N2CCC(N3CCN(C)CC3)CC2)ccc1Nc1ncc(Cl)c(Nc2ccc3nccnc3c2N(C)S(C)(=O)=O)n1 [Compound I-164] , report its IC50.
50 to 500 nM

For the molecule shown here, COc1cc(N2CCC(N3CCN(C)CC3)CC2)ccc1Nc1ncc(C#N)c(Nc2ccc3nccnc3c2N(C)S(C)(=O)=O)n1 [Compound I-27] , give the reported IC50.
50 to 500 nM

Param item = COc1ccc(N2CCC(O)CC2)cc1Nc1ncc(Br)c(Nc2ccc3nccnc3c2N(C)S(C)(=O)=O)n1 [Compound I-77] ; retrieve measured IC50.
50 to 500 nM

----------
IC50 listing for selected compounds.
target: various mutants of kinase EGFR (BaF3 cell lines stably transfected with kinase) (Homo sapiens, UniProt P00533, T790M, form not given); construct: other: BaF3 cells stably transfected with EGFR Δ19Del/T790M; MTS, 48 h; other: BaF3 cell line stably transfected with EGFR Δ19Del/T790M; MTS, 48; test: Growth inhibitory activity of compounds on BaF3 cell lines stably transfected with kinase (MTS, 48 h); type: cell-based; settings: BaF3 cells stably transfected with EGFR Δ19Del/T790M, read-out: IC50, growth inhibition, Δ19Del/T790M
Sequence (P00533 with tags, fused parts or gaps DEL746-750/T790M, form open): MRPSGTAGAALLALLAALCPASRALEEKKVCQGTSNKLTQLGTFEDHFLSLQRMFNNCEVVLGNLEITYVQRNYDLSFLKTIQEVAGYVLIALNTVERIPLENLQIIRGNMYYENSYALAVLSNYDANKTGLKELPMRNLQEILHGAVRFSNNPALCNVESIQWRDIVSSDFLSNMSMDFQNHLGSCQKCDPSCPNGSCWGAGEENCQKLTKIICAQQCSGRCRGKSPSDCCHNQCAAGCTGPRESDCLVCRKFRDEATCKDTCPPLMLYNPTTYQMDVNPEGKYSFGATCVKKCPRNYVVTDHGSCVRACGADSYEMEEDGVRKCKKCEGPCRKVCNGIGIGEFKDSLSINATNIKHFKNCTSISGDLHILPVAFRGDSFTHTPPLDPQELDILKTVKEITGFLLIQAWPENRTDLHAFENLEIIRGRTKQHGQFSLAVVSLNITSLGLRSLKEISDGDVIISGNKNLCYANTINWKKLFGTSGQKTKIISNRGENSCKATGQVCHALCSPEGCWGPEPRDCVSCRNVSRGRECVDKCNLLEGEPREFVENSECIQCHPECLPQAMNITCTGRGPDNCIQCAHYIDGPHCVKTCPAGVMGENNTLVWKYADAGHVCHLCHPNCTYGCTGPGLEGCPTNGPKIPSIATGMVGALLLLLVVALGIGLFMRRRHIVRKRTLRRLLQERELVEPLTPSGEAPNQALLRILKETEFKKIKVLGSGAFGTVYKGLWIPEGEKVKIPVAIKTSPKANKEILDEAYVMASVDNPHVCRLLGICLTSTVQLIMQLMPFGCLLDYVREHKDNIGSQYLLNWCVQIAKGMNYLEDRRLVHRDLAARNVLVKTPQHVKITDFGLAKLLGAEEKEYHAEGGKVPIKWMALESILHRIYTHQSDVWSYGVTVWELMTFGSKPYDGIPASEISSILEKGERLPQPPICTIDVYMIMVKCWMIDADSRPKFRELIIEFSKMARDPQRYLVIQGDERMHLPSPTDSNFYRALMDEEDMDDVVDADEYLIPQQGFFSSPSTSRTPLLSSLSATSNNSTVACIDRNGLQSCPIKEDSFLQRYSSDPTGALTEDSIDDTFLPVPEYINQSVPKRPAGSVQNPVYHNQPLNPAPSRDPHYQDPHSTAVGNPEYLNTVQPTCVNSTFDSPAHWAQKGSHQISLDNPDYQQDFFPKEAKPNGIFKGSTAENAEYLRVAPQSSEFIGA

CCc1cc(Nc2ncc(F)c(Nc3ccc4nccnc4c3N(C)S(=O)(=O)C3CC3)n2)c(OC(F)(F)F)cc1N1CCC(N2CCN(C)CC2)CC1 :: 500 to 2500 nM

Query (compound): CCc1cc(Nc2ncc(Cl)c(Nc3ccc4nccnc4c3N(C)S(=O)(=O)C(F)(F)F)n2)c(OC)cc1N1CCC(N(C)C)C1 (stereo not shown) ; field requested: IC50
50 to 500 nM

# get_value(readout='IC50', item= COc1nc(N2CCC(N3CCN(C)CC3)CC2)ccc1Nc1ncc(Cl)c(Nc2ccc3nccnc3c2N(C)S(C)(=O)=O)n1 )
500 to 2500 nM

Entry under review: COc1nc(N2CCC(N3CCN(C)CC3)CC2)ccc1Nc1ncc(Br)c(Nc2ccc3nccnc3c2N(C)S(C)(=O)=O)n1 . Reported IC50?
50 to 500 nM

Requested field: IC50. Item: CCc1cc(Nc2ncc(Cl)c(Nc3ccc4nccnc4c3N(C)S(C)(=O)=O)n2)c(OC)cc1N1CCN(C)CC1
≤ 50 nM

----------
Listed next: entries and their corresponding IC50.
target: various mutants of kinase EGFR (BaF3 cell lines stably transfected with kinase) (Homo sapiens, UniProt P00533, T790M/C797S, form not given); construct: other: BaF3 cells stably transfected with EGFR Δ19Del/T790M/C797S; MTS, 48; other: BaF3 cell line stably transfected with EGFR Δ19Del/T790M/C7; assay: Growth inhibitory activity of compounds on BaF3 cell lines stably transfected with kinase (MTS, 48 h); format: cell-based; details: BaF3 cell line stably transfected with EGFR Δ19Del/T790M/C797S, read-out: Δ19Del/T790M/ C797S growth inhibitory activity IC50
Sequence (P00533 with tags, fused parts or gaps DEL746-750/T790M/C797S, form open): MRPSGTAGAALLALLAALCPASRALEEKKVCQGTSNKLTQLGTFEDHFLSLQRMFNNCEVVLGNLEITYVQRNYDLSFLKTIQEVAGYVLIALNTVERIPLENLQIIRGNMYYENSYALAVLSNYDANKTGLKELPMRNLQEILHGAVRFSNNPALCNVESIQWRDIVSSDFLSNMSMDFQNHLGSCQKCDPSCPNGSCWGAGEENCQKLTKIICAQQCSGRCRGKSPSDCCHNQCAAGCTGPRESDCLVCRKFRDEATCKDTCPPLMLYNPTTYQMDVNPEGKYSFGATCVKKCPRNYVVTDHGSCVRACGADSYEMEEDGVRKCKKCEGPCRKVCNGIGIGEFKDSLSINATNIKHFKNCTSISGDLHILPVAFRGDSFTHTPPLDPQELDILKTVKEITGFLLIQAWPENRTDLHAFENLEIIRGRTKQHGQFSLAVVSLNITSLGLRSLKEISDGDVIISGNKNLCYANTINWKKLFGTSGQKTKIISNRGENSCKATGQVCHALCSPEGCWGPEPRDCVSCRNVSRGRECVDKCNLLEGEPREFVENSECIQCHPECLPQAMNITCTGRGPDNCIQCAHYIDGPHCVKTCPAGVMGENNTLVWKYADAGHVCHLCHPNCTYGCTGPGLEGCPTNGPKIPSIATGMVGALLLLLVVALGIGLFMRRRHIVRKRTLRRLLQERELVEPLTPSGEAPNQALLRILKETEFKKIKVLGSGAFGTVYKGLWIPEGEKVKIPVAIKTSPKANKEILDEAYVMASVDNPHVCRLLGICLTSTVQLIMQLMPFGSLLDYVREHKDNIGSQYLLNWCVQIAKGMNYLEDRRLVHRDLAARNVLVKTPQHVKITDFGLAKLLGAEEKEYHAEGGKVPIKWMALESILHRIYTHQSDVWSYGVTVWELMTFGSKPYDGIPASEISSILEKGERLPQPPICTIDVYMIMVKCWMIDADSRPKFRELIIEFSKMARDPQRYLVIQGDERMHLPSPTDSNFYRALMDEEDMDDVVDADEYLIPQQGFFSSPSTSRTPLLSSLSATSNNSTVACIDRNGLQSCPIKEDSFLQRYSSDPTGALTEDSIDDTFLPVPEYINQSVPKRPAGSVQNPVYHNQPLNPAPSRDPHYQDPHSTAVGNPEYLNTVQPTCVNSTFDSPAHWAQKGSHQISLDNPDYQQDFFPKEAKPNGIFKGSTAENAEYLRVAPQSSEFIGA

Worked examples follow.
CCc1cnc(Nc2ccc(N3CCC(N4CCN(C)CC4)CC3)cc2OC)nc1Nc1ccc2nccnc2c1N(C)S(C)(=O)=O :: ≤ 50 nM
COc1cc(N2CCC(N3CCN(C)CC3)CC2)ccc1Nc1ncc(Br)c(Nc2ccc3nccnc3c2NS(=O)(=O)C(C)C)n1 :: 50 to 500 nM
CCc1cc(Nc2nc(Nc3ccc4nccnc4c3N(C)S(C)(=O)=O)c3occc3n2)c(OC(F)(F)F)cc1N1CCC(N2CCN(C)CC2)CC1 :: 50 to 500 nM
COc1cc(N2CCC(N(C)C)C2)c(C)cc1Nc1nc(Nc2ccc3nccnc3c2N(C)S(C)(=O)=O)c2sccc2n1 (stereo not drawn) :: 50 to 500 nM
COc1cc(N2CCC(N3CCN(C)CC3)CC2)c(CC2CC2)cc1Nc1ncc(Br)c(Nc2ccc3nccnc3c2N(C2CC2)S(C)(=O)=O)n1 :: ≤ 50 nM

Please turn your attention to the following entry.
Returns the measured IC50 for the input molecule. Input: CCc1cc(Nc2ncc(Br)c(Nc3ccc4nccnc4c3NS(C)(=O)=O)n2)c(OC)cc1N1CCN(C)CC1
≤ 50 nM
